Test: Plasma pharmacokinetics of canagliflozin and its metabolites after oral administration to CTRL and type 2 diabetic (DM) rats, UPLC-MS/MS
Assay type: in vivo, rat
Details: rat, plasma, po, 20 mg/kg, DM (type 2 diabetic) rats; canagliflozin 20 mg/kg oral; mean ± SD, n = 5; read-out: t1/2z (converted)
ENDPOINT_LABEL: half-life (h)

Cc1ccc([C@@H]2O[C@H](CO)[C@@H](O)[C@H](O)[C@H]2O)cc1Cc1ccc(-c2ccc(F)cc2)s1 [Canagliflozin] ... 10.2
Cc1ccc(C2OC(CO)C(O)C(OC3OC(C(=O)O)C(O)C(O)C3O)C2O)cc1Cc1ccc(-c2ccc(F)cc2)s1 (stereo not shown) [M7] ... 14.5
Cc1ccc(C2OC(CO)C(O)C(O)C2OC2OC(C(=O)O)C(O)C(O)C2O)cc1Cc1ccc(-c2ccc(F)cc2)s1 (stereo not shown) [M5] ... 13.3
Cc1ccc(C2OC(CO)C(O)C(O)C2O)cc1C(O)c1ccc(-c2ccc(F)cc2)s1 (stereo not shown) [M9] ... 12.8
